- ASSAY EXPLANATION: microtubule stabilizers in HeLa cells, primary screen, imaging, high-content imaging (AID 2205);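 also: anti alpha tubulin signal scored within the nucleus-defined area of each cell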
- CONDITION DETAILS: HeLa tubulin immunostaining HCS, 24 h, at 10 µM; stronger effect = higher value
Among all 200,000 compounds or so, about 1,600 (0.8%) were called active. What follows is part of a selection rich in actives, with near analogues and random picks from the rest.
Documented % tubulin-high responders across a set of molecules
All answers are understood in %, so give the number only.

# MOLECULE, UNIT SYMBOL, % tubulin-high responders
data = [
    ("CN1CCN(C(=O)COc2ccc(C(C)(C)C)cc2Br)CC1", "%", 1.46),
    ("C[N+]12CN3CN(CN(C3)C1)C2", "%", 7.11),
    ("O=C(O)CCn1cc(C=C2C(=O)NC(=S)NC2=O)c(-c2cccc(Br)c2)n1", "%", 1.65),
]

## Task Please report the recorded % tubulin-high responders for `Cc1cccc(-n2c(C)nc3cc(C(=O)N4CCC5(CC4)OCCO5)ccc32)c1` .
## Result 48.1

## Task Also need `Cc1ccc(-c2cc(C(=O)N3CCC4(CC3)OCCO4)no2)cc1` , thanks.
## Result 2.98

## Task Entry `Cc1cccc2c(CCN)c[nH]c12` please
## Result 2.61

## Task Now this one: CC(Cc1cccs1)NCc1ccc(Cl)cc1 (configuration not stated)
## Result 3.24

Attribution: PubChem BioAssay AID2205
